system: SNB-19 CNS; experiment: NCI tumour cell line growth inhibition, 48 h
QUANTITY NAME: TGI

Some compounds with known TGI results, for comparison:
- MOLECULE: "CCc1c[n+]([O-])c(C)cc1[N+](=O)[O-]"
  RESULT: "> 100 µM"
- MOLECULE: "C(/C=C(\\Nc1ccccc1)C12CC3CC(CC(C3)C1)C2)=Nc1ccccc1"
  RESULT: "33.9 µM"
- MOLECULE: "CCC1=NC(C(F)(F)F)(C(F)(F)F)N=C(N2CCOCC2)O1"
  RESULT: "> 100 µM"
- MOLECULE: "COC(c1ccc(C(C)(C)C)cc1)(c1ccc(C(C)(C)C)cc1)c1ccc(C(C)(C)C)cc1"
  RESULT: "> 100 µM"
- MOLECULE: "COc1ccc(/C=C2\\C[C@H]3[C@@H]4CCC5=C/C(=N/O)CC[C@]5(C)[C@H]4CC[C@]3(C)\\C2=N\\O)cc1OC"
  RESULT: "> 100 µM"
- MOLECULE: "Nc1c(-c2ccccc2-c2c(N)[n+]([O-])c3ccccc3[n+]2[O-])[n+]([O-])c2ccccc2[n+]1[O-]"
  RESULT: "> 100 µM"
- MOLECULE: "CC(=O)O[C@H]1C(=O)[C@@]2(C)[C@H]([C@H](OC(=O)c3ccc(F)cc3)[C@]3(O)C[C@H](OC(=O)[C@H](O)[C@@H](NC(=O)c4ccccc4)c4ccccc4)C(C)=C1C3(C)C)[C@]1(OC(C)=O)CO[C@@H]1C[C@@H]2O"
  RESULT: "> 25 µM"

Would you kindly look at the next entry?
Give the measured TGI of CN(C)C(=S)SSC(=S)N(C)C .
> 100 µM

---

tested on: MDA-MB-231 breast; assay: NCI tumour cell line growth inhibition, 48 h
QUANTITY NAME: GI50

- MOLECULE: "CC1(C)CN=C(NN=C(/C=C/c2ccc(C(F)(F)F)cc2)/C=C/c2ccc(C(F)(F)F)cc2)NC1"
  TEST TARGET: "MDA-MB-231 breast"
  GI50: "477 nM"
- MOLECULE: "COc1cc2c(/C=N\\N=C(N)N)c[nH]c2cc1C"
  TEST TARGET: "MDA-MB-231 breast"
  GI50: "14700 nM"
- MOLECULE: "COc1cc(/C=C\\c2cc(OC)c(OC)c(OC)c2)cc(N/C=C\\C(=O)c2c[nH]c3ccccc23)c1OC"
  TEST TARGET: "MDA-MB-231 breast"
  GI50: "1730 nM"

Dear colleague, could you please provide GI50 for the molecules listed below?
1. O=C1c2ccccc2-c2c1c1ccccc1c(=O)n2CCN1CCNCC1
2. C=CC(=O)N1CN(C(=O)C=C)CN(C(=O)C=C)C1

["2450 nM", "11500 nM"]

---

system: HS 578T breast; assay: NCI tumour cell line growth inhibition, 48 h
QUANTITY NAME: TGI (µM)
Give bare numbers, in µM.

Some compounds with known TGI results, for comparison:
- COMPOUND: "Cc1cc2c([N+](=O)[O-])cc3c(c2o1)C(=O)C=CC3=O"
  NUMBER: 54.8
- COMPOUND: "C[C@]12CC[C@@H]3c4ccc(O)cc4CC[C@H]3[C@@H]1C/C(=C\\c1ccncc1)[C@@H]2O"
  NUMBER: 20.9
- COMPOUND: "Nc1cc(Br)c(-c2nnc(CCC(=O)c3nc4ccccc4[nH]3)o2)c(Br)c1"
  NUMBER: 31.7
- COMPOUND: "Nc1nc(Cl)cc(NCC2(CO)CCC(CCc3ccccc3)C2)n1 (configuration not stated)"
  NUMBER: 52.7
- COMPOUND: "O=C(c1ccco1)c1c(C(F)(F)F)n([O-])c2ccc(C(F)(F)F)cc2[n+]1=O"
  NUMBER: 2.74
- COMPOUND: "O=C(Nc1ccccc1F)c1cc2ccc(O)cc2oc1=Nc1ccccc1F"
  NUMBER: 5.03
- COMPOUND: "CC1CC(O)C(=O)C(O[C@@H]2C[C@@H]3CC[C@@H]4[C@H](CC[C@]5(C)C(C6=CC(=O)OC6)CC[C@]45O)[C@@]3(C=O)C[C@H]2O)O1 (some centres not stated)"
  NUMBER: 0.214
- COMPOUND: "CO[C@H]1Nc2c(ccc(C)c2O)C(=O)N2C=C(/C=C/C(N)=O)C[C@@H]12"
  NUMBER: 0.0407
- COMPOUND: "COc1ccc(C(=O)c2cc(OC)c(OC)c(OC)c2)cc1OC"
  NUMBER: 8.83

Would you kindly look at the next entry?
Give the measured TGI of COc1ccc(-c2nccn2-c2ccc(OC)cc2)cc1 .
74.7

---

Record form. Attribute: TGI. Fill in for each entry.
tested on: SK-OV-3 ovarian; assay: NCI tumour cell line growth inhibition, 48 h

- COMPOUND: "COc1cc(-c2cc(=O)c3cc4c(=O)cc(-c5cc(OC)c(OC)c(OC)c5)oc4cc3o2)cc(OC)c1OC"
  QUANTITY NAME: "TGI"
  RESULT: "41.4 µM"
- COMPOUND: "CNc1ncnc2c1cnn2COCC(O)CO (stereo unspecified)"
  QUANTITY NAME: "TGI"
  RESULT: "> 100 µM"
- COMPOUND: "CC(=O)O/N=C/c1c2ccccc2cc2ccccc12"
  QUANTITY NAME: "TGI"
  RESULT: "69.6 µM"
- COMPOUND: "O=C1NCCS(=O)(=O)N[C@@H](CC2=CC=CCC2)C(=O)N2CCCC12 (stereo partly specified)"
  QUANTITY NAME: "TGI"
  RESULT: "> 100 µM"
- COMPOUND: "CC(C(=O)c1ccc(Cl)cc1)/C(=N/NC(=O)NN)C(=O)Nc1cccc(C(F)(F)F)c1 (stereo unspecified)"
  QUANTITY NAME: "TGI"
  RESULT: "> 100 µM"

Would you kindly look at the next entry?
Give the measured TGI of O=[N+]([O-])c1cccc(C2=NOC(C3CCCCC3)C2)c1 (stereo unspecified) .
> 100 µM

---

Record form. Attribute: TGI. Fill in for each entry.
tested on: BT-549 breast; assay: NCI tumour cell line growth inhibition, 48 h

Some compounds with known TGI results, for comparison:
- COMPOUND: "COc1ccc(C(=O)c2cc(OC)c(OC)c(OC)c2)cc1OC"
  TEST TARGET: "BT-549 breast"
  TGI: "> 100 µM"
- COMPOUND: "COc1ccc(S(=O)(=O)N2C(=O)CCC2C(=O)NN)cc1 (stereo unspecified)"
  TEST TARGET: "BT-549 breast"
  TGI: "> 100 µM"
- COMPOUND: "NC(CC1=CS(=O)(=O)c2ccc(Cl)cc21)C(=O)O (stereo unspecified)"
  TEST TARGET: "BT-549 breast"
  TGI: "> 100 µM"

Dear colleague, could you please provide TGI for the compounds listed below?
1. Cn1c(=O)c2c(nc(C(=N)SCC(=O)O)n2C)n(C)c1=O
2. COc1cc2nc(-c3cccs3)oc(=O)c2cc1OC
3. O=C(NCc1ccc(Cn2c(=O)sn(-c3ccccc3)c2=O)cc1)OCc1ccc2cccc(O)c2n1
4. COc1cc2cc(Oc3ccc(NC(=O)c4cc(C(F)(F)F)cc(C(F)(F)F)c4)cc3)c(C)nc2cc1OC
5. CC(C)c1[nH]nc2c1N=C(c1ccccc1Cl)c1cc([N+](=O)[O-])ccc1N2
6. O=C(Oc1cc(=O)c(OC(=O)c2ccccc2)co1)c1ccccc1
7. COC(=O)c1cc2c(o1)-c1nccc3c1c(nc1ccccc13)C2=O
8. CC1(C)C2CC(=O)C1(C)C(O)C2Br (stereo unspecified)

1: > 100 µM; 2: > 100 µM; 3: 2.3 µM; 4: > 50 µM; 5: > 22.1 µM; 6: > 100 µM; 7: 18.2 µM; 8: > 100 µM

---

Record form. Attribute: TGI. Fill in for each entry.
test system: HS 578T breast; experiment: NCI tumour cell line growth inhibition, 48 h

Dear colleague, could you please provide TGI for the molecules listed below?
1. CN(Cc1ccccc1)c1cc(=O)n(C)c(=O)[nH]1
2. Cc1cc(Nc2nc(-c3cn(-c4ccc(Cl)cc4)nn3)nc3ccccc23)n[nH]1
3. COC(C)(C)[C@@H](O)[C@H]1C[C@H](C)[C@@]2(CC[C@]3(C)[C@@H]2CC[C@@H]2[C@@]4(C)CC[C@@H](OC(C)=O)C(C)(C)[C@@H]4C[C@@H](OC4OC(COC(C)=O)C(O)C(O)C4O)[C@]23C)O1 (stereo partly drawn)
4. CC(C)=CCC/C(C)=C/COC(C)(C)C1=CCC(C)CC1 (stereo not drawn) (tested in a mixture with another compound)
5. C[C@@H]1S[C@H](c2ccccc2F)N2Cc3ccccc3N=C12
6. CCCc1cc(=O)n2c(C(=O)Nc3ccc(Cl)cc3C)c(C(=O)Nc3ccc(F)cc3)sc2n1
7. O=C1CCCN1c1ccccc1I(=O)=O
8. Cc1ccc(OCCn2cc(Nc3ccccc3)c(=O)n(CCOc3ccc(C)cc3)c2=O)cc1

1: > 100 µM; 2: > 50 µM; 3: 23.7 µM; 4: > 100 µM; 5: > 100 µM; 6: 8.55 µM; 7: > 100 µM; 8: > 100 µM

Source listed as PubChem BioAssay (NCI).
